Origin of measurements: ChEMBL document CHEMBL1124378

target: Muscarinic acetylcholine receptor; assay: Compound was evaluated for the inhibition of [3H]QNB binding to Muscarinic acetylcholine receptor from male Olac rat brain.

>  <STRUCTURE>
CN1CCN(C2=Nc3cc(C(F)(F)F)ccc3Nc3nn(C)cc32)CC1

>  <IC50>
> 10 µM

$$$$
>  <STRUCTURE>
Cn1cc2c(n1)Nc1ccc(F)cc1N=C2N1CCNCC1

>  <IC50>
> 10 µM

$$$$
>  <STRUCTURE>
Cn1cc2c(n1)Nc1ccc(F)cc1N=C2N1CCCCC1

>  <IC50>
> 10 µM

$$$$

---

tested on: Rattus norvegicus; assay: Compound administered perorally was evaluated for the conditioned avoidance response in rats; assay type: functional

>  <COMPOUND>
Cc1nn(C)c2c1Nc1ccc(F)cc1N=C2N1CCN(C)CC1

>  <ED>
>50 mg/kg

$$$$
>  <COMPOUND>
CN1CCN(C2=Nc3cc(I)ccc3Nc3nn(C)cc32)CC1

>  <ED>
>20 mg/kg

$$$$
>  <COMPOUND>
CCOC(=O)N1CCN(C2=Nc3cc(F)ccc3Nc3nn(C)cc32)CC1

>  <ED>
>50 mg/kg

$$$$
>  <COMPOUND>
Cc1cc2c(s1)Nc1ccc(F)cc1N=C2N1CCN(C)CC1 [FLUMEZAPINE]

>  <ED>
5 mg/kg

$$$$
>  <COMPOUND>
CN1CCN(C2=Nc3ccc(F)cc3Nc3nn(C)cc32)CC1

>  <ED>
>20 mg/kg

$$$$
>  <COMPOUND>
CN(C)CCNC1=Nc2cc(F)ccc2Nc2nn(C)cc21

>  <ED>
>50 mg/kg

$$$$
>  <COMPOUND>
CN1CCN(C2=Nc3ccccc3Nc3nn(C)cc32)CC1

>  <ED>
>50 mg/kg

$$$$
>  <COMPOUND>
CCn1cc2c(n1)Nc1ccc(Cl)cc1N=C2N1CCN(C)CC1

>  <ED>
>15 mg/kg

$$$$
>  <COMPOUND>
CCCn1cc2c(n1)Nc1ccc(F)cc1N=C2N1CCN(C)CC1

>  <ED>
40 mg/kg

$$$$
>  <COMPOUND>
CCCCCCn1cc2c(n1)Nc1ccc(F)cc1N=C2N1CCN(C)CC1.Cl

>  <ED>
>50 mg/kg

$$$$
>  <COMPOUND>
CN1CCN(C2=Nc3cc(F)ccc3Nc3nn(C)c(-c4ccccc4)c32)CC1

>  <ED>
>50 mg/kg

$$$$
>  <COMPOUND>
CCn1cc2c(n1)Nc1ccc(F)cc1N=C2N1CCN(C)CC1

>  <ED>
50 mg/kg

$$$$
>  <COMPOUND>
Cn1cc2c(n1)Nc1ccc(F)cc1N=C2N1CC[N+](C)([O-])CC1

>  <ED>
>50 mg/kg

$$$$
